target: Aurora kinase A (Homo sapiens) (UniProt O14965); conditions: Compound concentration 20.0 uM
Sequence (O14965 whole entry): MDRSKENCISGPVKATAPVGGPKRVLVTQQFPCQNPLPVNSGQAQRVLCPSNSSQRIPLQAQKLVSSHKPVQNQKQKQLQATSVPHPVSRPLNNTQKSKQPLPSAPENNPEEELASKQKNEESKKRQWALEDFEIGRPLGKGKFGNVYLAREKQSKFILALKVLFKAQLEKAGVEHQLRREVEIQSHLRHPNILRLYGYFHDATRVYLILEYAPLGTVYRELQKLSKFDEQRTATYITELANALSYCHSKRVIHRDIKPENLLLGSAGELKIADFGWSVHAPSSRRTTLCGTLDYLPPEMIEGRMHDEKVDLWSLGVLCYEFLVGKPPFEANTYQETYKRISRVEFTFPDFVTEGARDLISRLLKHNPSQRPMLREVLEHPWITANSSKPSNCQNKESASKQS
Description: Thermal Shift Assay. Domain: start/stop: E122-S403
Residues, ends and D or L forms follow the SMILES beside them.
ΔTm values, listed per item
QUANTITY_NAME: ΔTm (°C)

INSERT INTO results (molecule, endpoint_value) VALUES
  ('O=C(c1cccc(-c2ccc(-c3cn(C(=O)N4CCCCC4c4ccccc4)nn3)cc2)c1)N1CCCCC1 (stereo unspecified)', 4.6),
  ('Cc1ncsc1-c1ccc([C@H](C)NC(=O)[C@@H]2C[C@@H](O)CN2C(=O)[C@@H](NC(=O)CNC(=O)c2ccc(F)c(-c3ccc(N4C[C@@H](C)N(C)[C@@H](C)C4)c(NC(=O)c4c[nH]c(=O)cc4C(F)(F)F)c3)c2)C(C)(C)C)cc1', -5.35),
  ('CC(C)[C@@H]1C(=O)N(S(C)(=O)=O)[C@@H]2CCN(C(=O)/C=C/CN3CCCCC3)[C@H]21', -0.54),
  ('CC(=O)N[C@H](C(=O)N[C@@H](CC(=O)O)C(=O)N[C@H](C(=O)N[C@@H](C)C(=O)N[C@H](C=O)CC(=O)O)C(C)C)C(C)C (Ac-VDVAD-aldehyde)', -1.39),
  ('CCC(CC)N(CCN(C)C(=O)CCC(=O)O)Cc1cccc(C(=O)Nc2sc3c(c2C(=O)c2cnn(-c4ccc(Cl)c(C(F)(F)F)c4)c2)CCC(C)(C)C3)c1', -8.72),
  ('Cc1noc(C)c1-c1cc(Cl)c(Nc2ccccc2C(=O)O)c(Cl)c1', -2.08);
